Sourced from PubChem BioAssay (NCI)

Property: TGI; scope: individual compounds
System: SW-620 colon
Assay: NCI tumour cell line growth inhibition, 48 h

# compound, TGI
data = [
    ("CC(=O)O[C@H]1C[C@H]2[C@@H]([C@H](OC(C)=O)C[C@@H]3CC4(CC[C@@]32C)OOC2(CCCCC2)OO4)[C@@H]2CC[C@H]([C@H](C)CCC(=O)O)[C@@]12C", "30 µM"),
    ("Cc1cc(C)nc(NC(=S)Nc2ccc(Cl)cc2)c1", "> 100 µM"),
    ("O=C(O)Cn1ccc(=O)c2c([N+](=O)[O-])cccc21", "> 100 µM"),
    ("CC(=O)OC1CC[C@@]2(C)C(=CC[C@@H]3[C@@H]2CC[C@]2(C)C(OC(C)=O)[C@H](n4ccnc4)C[C@@H]32)C1 (stereo not given in full)", "> 100 µM"),
    ("C/C(=N\\Nc1nc2ccccc2n1C)c1ccc2ccccc2n1", "25.8 µM"),
    ("Cn1cnnc1SC(F)(F)c1nc2ccccc2o1", "> 100 µM"),
    ("CN(C)CCNC(=O)c1cccc2cc3ccc4ccccc4c3nc12", "1.19 µM"),
    ("O=C(/C=C/c1ccc(Cl)cc1)c1ccc(Cl)s1", "55 µM"),
    ("Nc1ncnc2c1ncn2CCOC(c1ccccc1)P(=O)(O)O (stereo not given)", "> 100 µM"),
    ("O=c1[nH]c(=S)[nH]c2c(C3OC(CO)C(O)C3O)nsc12 (stereo not given)", "> 100 µM"),
    ("CCCCC1Cc2cc(OC)ccc2-c2n1c1cc(OC)ccc1[n+]2C (stereo not given) (tested in a mixture with another compound)", "> 55.5 µM"),
    ("Nc1c(-c2nc3ccccc3s2)[n+]([O-])c2ccccc2[n+]1[O-]", "> 100 µM"),
    ("CC1=CC(=O)c2c(O)c3c(c(O)c2C1=O)C1C(O)C(C3=O)C23C(=O)c4c(O)c(C)cc(O)c4C(O)=C2C(=O)CC(O)C13 (stereo not given)", "12.2 µM"),
    ("CC(N)=O.[Cl][Pt][Cl].[NH-]c1ccn(C2OC(CO)C(O)C2O)c(=O)n1 (stereo not given)", "> 100 µM"),
    ("COc1ccc(/C=N/n2c(Cc3ccccc3)n[nH]c2=O)cc1", "> 100 µM"),
    ("O=S(=O)(/N=C(\\NO)Nc1ccc(Cl)cc1)c1cc(S(=O)(=O)c2ccccc2)cs1", "49.2 µM"),
    ("Cc1csc(CCC(N)C(=O)O)n1 (stereo not given)", "> 100 µM"),
    ("O=C(CCC(=O)C1Cc2ccccc2C1=O)Nc1cccc(C(F)(F)F)c1 (stereo not given)", "> 100 µM"),
    ("O=S(=O)(Cc1ccccc1)SCc1ccccc1", "15.5 µM"),
    ("Cc1ccc(O)cc1Nc1ccnc2cc(-c3ccccn3)ccc12", "7.65 µM"),
]
